# studySystem: P. falciparum apicoplast DNA polymerase (Pf-apPOL) (Plasmodium falciparum, UniProt Q8ILY1)
# Sequence (Q8ILY1 entry or part of it): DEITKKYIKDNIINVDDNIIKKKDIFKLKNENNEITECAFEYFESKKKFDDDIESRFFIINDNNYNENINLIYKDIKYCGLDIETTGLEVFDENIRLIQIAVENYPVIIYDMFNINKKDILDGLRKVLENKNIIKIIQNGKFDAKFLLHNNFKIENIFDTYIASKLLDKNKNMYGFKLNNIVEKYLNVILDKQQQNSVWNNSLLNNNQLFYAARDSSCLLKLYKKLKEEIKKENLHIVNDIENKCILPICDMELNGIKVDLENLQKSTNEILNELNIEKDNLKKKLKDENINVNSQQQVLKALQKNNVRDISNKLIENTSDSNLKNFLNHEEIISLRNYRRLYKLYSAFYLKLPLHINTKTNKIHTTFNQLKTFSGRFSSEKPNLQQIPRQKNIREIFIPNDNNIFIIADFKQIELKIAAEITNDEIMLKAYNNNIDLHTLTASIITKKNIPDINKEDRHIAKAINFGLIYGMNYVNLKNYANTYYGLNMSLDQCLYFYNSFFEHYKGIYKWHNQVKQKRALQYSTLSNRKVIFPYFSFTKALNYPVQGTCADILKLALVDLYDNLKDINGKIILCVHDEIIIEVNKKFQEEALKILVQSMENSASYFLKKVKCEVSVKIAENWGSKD
# measurementProtocol: Fluorescence-based high-throughput DNA polymerase assay (molecular beacon), primary screen and dose-response;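 as to % inhibition apPOL 180': test concentration in µM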
# Format: biochemical
# condition: DRC-2; 180'; concentration 2.5
# Source text: The HT assay employs a molecular beacon, a stem-loop DNA template with a Cy3 dye and the Black Hole Quencher on the 3′ and 5′ ends of the DNA, respectively. Pf-apPOL concentration is based on a calculated absorptivity of ε280 = 56750 M^−1 cm^−1. […] To identify apPOL inhibitors we utilised our previously developed high-throughput DNA polymerase assay. […] The assay accurately recapitulates the kinetic behaviour of apPOL, as measured through more conventional low-throughput gel-based assays. […]
Reported values of % inhibition apPOL 180' for individual entries
readoutName: % inhibition apPOL 180' (%)

>>> reportedmeasurement("NC(=O)c1cc[n+](CC2=C(C(=O)[O-])N3C(=O)[C@@H](NC(=O)[C@@H](c4ccccc4)S(=O)(=O)[O-])[C@H]3SC2)cc1.[Na+] [Molecule 9]")
1.56
>>> reportedmeasurement("COc1ccc(-c2c(C(F)(F)F)nn3c(=O)cc(-c4cccc([N+](=O)[O-])c4)[nH]c23)cc1 [Molecule 16]")
9
>>> reportedmeasurement("O=C(CSc1nnc(-c2ccco2)[nH]1)c1ccc(Cl)cc1 [KU0029065]")
0.33
>>> reportedmeasurement("CCOc1cccc2cc(C(=O)Nc3nnc(-c4ccno4)o3)oc12 [Molecule 28, CCOc1cccc2c1oc(c2)C(=O)Nc1nnc(o1)c1ccno1]")
2
>>> reportedmeasurement("O=c1cc(CN2CCCCC2)c2cc3c(cc2o1)OCO3 [Molecule 56, O=c1cc(CN2CCCCC2)c2c(o1)cc1c(c2)OCO1]")
4
>>> reportedmeasurement("O=C(CSc1nnc(-c2ccncc2)[nH]1)c1ccc(O)c(O)c1 [Molecule 89]")
34
>>> reportedmeasurement("O=C1C(=Cc2ccncc2)Oc2c1ccc1c2CN(Cc2ccc3c(c2)OCO3)CO1 [KU0199357]")
-7

* * *

# studySystem: P. falciparum apicoplast DNA polymerase (Pf-apPOL) (Plasmodium falciparum)
# measurementProtocol: Fluorescence-based high-throughput DNA polymerase assay (molecular beacon), primary screen and dose-response
# Type: biochemical
# condition: DRC-2; 5'; concentration 20
Reported values of % inhibition Apo pol 5' for individual entries
readoutName: % inhibition Apo pol 5' (%)

>>> reportedmeasurement("Cc1ccc(C(=O)/C=C/C=C/C=C/N(C)C)o1 [Molecule 96, CN(/C=C/C=C/C=C/C(=O)c1ccc(o1)C)C]")
2.29
>>> reportedmeasurement("Cc1ccc(NC(=O)C2CCN(C(=O)c3cc4ccsc4[nH]3)CC2)c(Br)c1 [Molecule 14]")
50
>>> reportedmeasurement("COc1ccc(C=C2Oc3c(ccc4c3CN(c3ccc5c(c3)OCO5)CO4)C2=O)cc1OC [KU0199426]")
45
>>> reportedmeasurement("O=C(c1ccccc1)N1CCc2c(nc3cc(-c4ccccc4)[nH]n3c2=O)C1 [Molecule 30]")
50
>>> reportedmeasurement("CN(C)S(=O)(=O)Oc1ccc(-c2noc(-c3ccc(Oc4cc(Cl)cc(Cl)c4)o3)n2)cc1 [KU0263859]")
47
>>> reportedmeasurement("COc1ccc(-c2n[nH]cc2Oc2ccc(Cl)cc2)c(O)c1 [KU0029837]")
43
>>> reportedmeasurement("Cl.NC(CO)C(=O)NNCc1ccc(O)c(O)c1O (stereo not drawn) [KU0260493]")
36
>>> reportedmeasurement("O=C(Nc1cccc(C(=O)Nc2ccc(S(=O)(=O)[O-])c3cc(S(=O)(=O)[O-])cc(S(=O)(=O)[O-])c23)c1)Nc1cccc(C(=O)Nc2ccc(S(=O)(=O)[O-])c3cc(S(=O)(=O)[O-])cc(S(=O)(=O)[O-])c23)c1.[Na+].[Na+].[Na+].[Na+].[Na+].[Na+] [Molecule 39]")
52
>>> reportedmeasurement("CC(NC(=O)Cc1cc(=O)[nH]c(SCc2cccc(Cl)c2)n1)c1ccccc1 (stereo not drawn) [Molecule 67]")
33
>>> reportedmeasurement("CCOc1cccc2cc(C(=O)Nc3nnc(-c4ccno4)o3)oc12 [Molecule 28, CCOc1cccc2c1oc(c2)C(=O)Nc1nnc(o1)c1ccno1]")
45
>>> reportedmeasurement("O=C(O)c1ccc(-c2nc3cc(-c4ccc5nc(-c6ccc(C(=O)O)cc6)[nH]c5c4)ccc3[nH]2)cc1 [Molecule 1]")
37
>>> reportedmeasurement("O=C1NCCCn2cc(S(=O)(=O)Nc3ccccc3)cc21 [KU0214835]")
44
>>> reportedmeasurement("Cc1ccc(-n2nnc(C(=O)O)c2-c2ccccn2)c(F)c1 [Molecule 54, Cc1ccc(c(c1)F)n1nnc(c1c1ccccn1)C(=O)O]")
33
>>> reportedmeasurement("COc1cc(NC(=O)c2ccccc2)c(OC)cc1NC(=O)Cc1cccs1 [KU0032113]")
38
>>> reportedmeasurement("O=C1N=C(Nc2cccc(Cl)c2Cl)S/C1=C\\c1ccco1 [Molecule 3, O=C1N=C(S/C/1=C\\c1ccco1)Nc1cccc(c1Cl)Cl]")
31

* * *

# studySystem: P. falciparum apicoplast DNA polymerase (Pf-apPOL) (Plasmodium falciparum)
# measurementProtocol: Fluorescence-based high-throughput DNA polymerase assay (molecular beacon), primary screen and dose-response
# Type: biochemical
# condition: DRC-2; 5'; conc 40
readoutName: % inhibition Apo pol 5' (%)

>>> reportedmeasurement("COC(=O)c1sc(-c2ccc(C(C)(C)C)cc2)cc1NC(=O)CCC(=O)O [Molecule 87]")
60
>>> reportedmeasurement("C=CCOc1c(Br)cc(Br)cc1/C=C1\\SC(=N)NC1=O [KU0051640]")
54
>>> reportedmeasurement("O=C(O)c1ccc(COc2cc([N+](=O)[O-])cc3cccnc23)cc1 [KU0058403]")
55
>>> reportedmeasurement("CC(C)CCNC(=O)c1cnn2c(O)cc(CSc3ccc(Cl)cc3)nc12 [Molecule 101]")
66
>>> reportedmeasurement("O=c1nc(/C=C/c2ccc(Br)cc2)oc2ccccc12 [KU0052629]")
60
>>> reportedmeasurement("Cc1cccc(C2=N/C(=C\\c3ccc([N+](=O)[O-])o3)C(=O)O2)c1 [KU0058960]")
51
>>> reportedmeasurement("O=C1NN(c2ccc(Cl)c(Cl)c2)C(=O)/C1=C/c1ccc(-c2ccc3c(c2)C(=O)OC3)o1 [Molecule 90]")
61
>>> reportedmeasurement("O=C1Nc2ccc(I)cc2C1=Cc1cc(Br)c(O)c(Br)c1 [Molecule 27]")
54
>>> reportedmeasurement("CCOc1nc2cccc(C(=O)OC(C)OC(=O)OC3CCCCC3)c2n1Cc1ccc(-c2ccccc2-c2nnn[nH]2)cc1 (stereo not drawn) [Molecule 94]")
61

* * *

# studySystem: P. falciparum apicoplast DNA polymerase (Pf-apPOL) (Plasmodium falciparum, UniProt Q8ILY1)
# measurementProtocol: Fluorescence-based high-throughput DNA polymerase assay (molecular beacon), primary screen and dose-response;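 as to % inhibition ApPOL 90': test concentration in µM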
# Assay type: biochemical
# condition: DRC-2; 90'; concentration 80
readoutName: % inhibition ApPOL 90' (%)

>>> reportedmeasurement("Cc1ccc(C)n1-c1ccc(C(=O)NNC(=O)c2ccc3nccnc3c2)cc1")
74
>>> reportedmeasurement("O=[N+]([O-])c1ccc(/C=C/c2ccc3ccccc3n2)o1")
30
>>> reportedmeasurement("O=C(O)c1c(F)c(F)c(-c2c(F)c(F)c(C(=O)O)c(F)c2F)c(F)c1F")
47
>>> reportedmeasurement("O=C(c1ccccc1)N1CCc2c(nc3cc(-c4ccccc4)[nH]n3c2=O)C1")
60
>>> reportedmeasurement("COc1ccc2c(c1)C(c1ccccc1OC)CC(=O)O2 (centres unmarked)")
84
>>> reportedmeasurement("COc1ccc(-c2cc3nc4c(c(=O)n3[nH]2)CCN(C(=O)CCc2ccccc2)C4)cc1")
61
>>> reportedmeasurement("COc1ccc(NC(=O)Cn2nc3c(cc2=O)CCC3)cc1Cl")
71
>>> reportedmeasurement("O=C(NC(C(Cl)Cl)S(=O)(=O)c1ccccc1)c1ccccc1 (centres unmarked)")
64
>>> reportedmeasurement("O=C(Nc1cccc(C(=O)Nc2ccc(S(=O)(=O)[O-])c3cc(S(=O)(=O)[O-])cc(S(=O)(=O)[O-])c23)c1)Nc1cccc(C(=O)Nc2ccc(S(=O)(=O)[O-])c3cc(S(=O)(=O)[O-])cc(S(=O)(=O)[O-])c23)c1.[Na+].[Na+].[Na+].[Na+].[Na+].[Na+]")
83
>>> reportedmeasurement("Cc1cccc(-c2nnc3ccc(NS(=O)(=O)c4ccc(C)c(C)c4)nn23)c1")
62
>>> reportedmeasurement("O=C(Nc1c2c(nn1-c1ccc(Oc3ccccc3)cc1)CSC2)c1ccco1")
75
>>> reportedmeasurement("COCC(=O)Nc1c(-c2cccc(F)c2)nc2cc(C)ccn12")
74
>>> reportedmeasurement("Cc1cc(C)c(O)c(/N=C/c2cc([N+](=O)[O-])cc(Br)c2O)c1")
75
>>> reportedmeasurement("C=CC1=C(C)c2cc3[nH]c(cc4nc(cc5[nH]c(cc1n2)c(C)c5CCC(=O)O)C(CCC(=O)O)=C4C)c(C)c3C=C")
75
